System: THP-1
protocol description: Antiinflammatory activity in human THP1 cells assessed as inhibition of LPS-stimulated TNF-alpha release at 50 uM incubated for 1 hr prior to LPS challenge measured after 24 hrs by sandwich ELISA relative to untreated control
Format: functional
readout type: inhibition at 50 µM (%)

• c1ccc2c(c1)ccc1ccccc12 = 6
• COc1cc2c(c(OC)c1O)-c1ccc(O)cc1CC2 = 47
• COc1cc(/C=C/C(=O)CC(=O)/C=C/c2ccc(O)c(OC)c2)ccc1O = 95.5
• c1ccc2c(c1)CCc1ccccc1-2 = 5
• COc1cc(O)c2c(c1)CCc1c-2ccc(OC)c1O = 79
• COc1ccc2c(c1O)CCc1cc(O)cc(OC)c1-2 = 70
• COc1cc2ccc3cc(O)ccc3c2c(OC)c1O = 34

----------
System: THP-1
protocol description: Antiinflammatory activity in human THP1 cells assessed as inhibition of LPS-stimulated TNF-alpha release at 1 uM incubated for 1 hr prior to LPS challenge measured after 24 hrs by sandwich ELISA relative to untreated control
Type: functional
readout type: inhibition at 1 µM (%)

• COc1cc(O)c2c(c1)CCc1c-2ccc(OC)c1O = 9
• COc1ccc2c(c1O)CCc1cc(O)cc(OC)c1-2 = 19.5
• c1ccc2c(c1)ccc1ccccc12 [PHENANTHRENE] = 0
• COc1cc2c(c(OC)c1O)-c1ccc(O)cc1CC2 [FLAVANTHRIDIN] = 8
• COc1cc2ccc3cc(O)ccc3c2c(OC)c1O = 3.5
• c1ccc2c(c1)CCc1ccccc1-2 = 0
• COc1cc(/C=C/C(=O)CC(=O)/C=C/c2ccc(O)c(OC)c2)ccc1O [CURCUMIN] = 1.5

----------
// fold change (FC) lookup, one value per entry
Test system: THP-1
protocol description: Cytotoxicity against human THP1 cells assessed as cell viability at 100 uM after 24 hrs by CCK-8 assay relative to untreated control
Assay type: cell-based
applied conditions: thp-1, 24 h
readout type: fold change (FC)

- c1ccc2c(c1)ccc1ccccc12 [PHENANTHRENE]: 1.1
- COc1cc2ccc3cc(O)ccc3c2c(OC)c1O: 1
- COc1cc(/C=C/C(=O)CC(=O)/C=C/c2ccc(O)c(OC)c2)ccc1O [CURCUMIN]: 0.5
- COc1cc(O)c2c(c1)CCc1c-2ccc(OC)c1O: 1.1
- COc1cc2c(c(OC)c1O)-c1ccc(O)cc1CC2 [FLAVANTHRIDIN]: 1.2
- COc1ccc2c(c1O)CCc1cc(O)cc(OC)c1-2: 1
- c1ccc2c(c1)CCc1ccccc1-2: 1.2

----------
System: THP-1
protocol description: Cytotoxicity against human THP1 cells assessed as cell viability at 1 uM after 24 hrs by CCK-8 assay relative to untreated control
Format: cell-based
applied conditions: thp-1, 24 h
readout type: fold change (FC)

* COc1cc2ccc3cc(O)ccc3c2c(OC)c1O | 1.4
* COc1ccc2c(c1O)CCc1cc(O)cc(OC)c1-2 | 1.3
* c1ccc2c(c1)CCc1ccccc1-2 | 1.6
* c1ccc2c(c1)ccc1ccccc12 [PHENANTHRENE] | 1.4
* COc1cc(O)c2c(c1)CCc1c-2ccc(OC)c1O | 1.5
* COc1cc(/C=C/C(=O)CC(=O)/C=C/c2ccc(O)c(OC)c2)ccc1O [CURCUMIN] | 1.8
* COc1cc2c(c(OC)c1O)-c1ccc(O)cc1CC2 [FLAVANTHRIDIN] | 1.4

----------
protocol description: Antioxidant activity assessed as ABTS free radical scavenging activity after 1 min
Type: functional
// IC50 lookup, one value per entry
readout type: IC50 (µg/mL)

- Cc1cc(C(C)(C)C)c(O)c(C(C)(C)C)c1 [BUTYLATED HYDROXYTOLUENE]: 36.11
- COc1ccc2c(c1O)CCc1cc(O)cc(OC)c1-2: 15.62
- COc1cc(/C=C/C(=O)CC(=O)/C=C/c2ccc(O)c(OC)c2)ccc1O [CURCUMIN]: 28.3
- Oc1cc(O)c2c(c1)OC(c1ccc(O)c(O)c1)C(O)C2 (stereo not drawn) [CATECHIN]: 11.46
- COc1cc(O)c2c(c1)CCc1c-2ccc(OC)c1O: 16.98
- O=C1O[C@H]([C@@H](O)CO)C(O)=C1O [ASCORBIC ACID]: 29.17
